Tested on: L1210 leukemia ip in BDF1 mice, survival T/C
Assay: NCI In Vivo Anticancer Drug Screen. Data for tumor model L1210 Leukemia (intraperitoneal) in B6D2F1 (BDF1) mice
Conditions: endpoint: mean survival time; dose: 200.0 mg/kg/injection; schedule: Q04DX003 (ip); vehicle: saline with Tween-80; higher = longer survival
Toxic doses and inconclusive results are not listed.
What T/C was measured for each of the following?

Query string: Please report T/C for the following compound: c1ccc([Si](c2ccccc2)(c2ccccc2)c2ccc([Si](c3ccccc3)(c3ccccc3)c3ccccc3)cc2)cc1
Result string: 90 % of control

Query string: Please report T/C for the following compound: CCOC(=O)c1sc(NC(C)=O)c(C(=O)OCC)c1C
Result string: 114 % of control

Query string: Please report T/C for the following compound: Clc1ccc(/C=N/Nc2nc3ccccc3s2)c(Cl)c1
Result string: 93 % of control

Query string: Please report T/C for the following compound: CC(=O)C(/C=N/C(=O)N(C)C)=C(/C)O
Result string: 104 % of control

Query string: Please report T/C for the following compound: CC(N)C(O)C(Cl)(Cl)Cl (configuration not stated)
Result string: 92 % of control

Query string: Please report T/C for the following compound: O=C(O)C1CC1Oc1ccccc1 (configuration not stated)
Result string: 108 % of control

Query string: Please report T/C for the following compound: CC(=O)Oc1cc(C=O)cc(OC(C)=O)c1OC(C)=O
Result string: 121 % of control

Query string: Please report T/C for the following compound: CCCCN(CCCC)CC(O)c1cnc2c(Cl)cc(Cl)cc2c1Cl (configuration not stated)
Result string: 102 % of control

Query string: Please report T/C for the following compound: O=C(O)CCC(=O)CC1CCCCC1
Result string: 87 % of control

Query string: Please report T/C for the following compound: C=CC(=O)Nc1cccc(OC(=O)NC(C)(C)C)c1
Result string: 92 % of control

Query string: Please report T/C for the following compound: CC(C)CC(=O)OC1CCCCC1
Result string: 101 % of control

Query string: Please report T/C for the following compound: c1ccc(C2c3cccc4c3C3c5c2cccc5C(c2ccccc2)c2cccc(c23)C4c2ccccc2)cc1 (configuration not stated)
Result string: 95 % of control

Reference for the values: PubChem BioAssay AID248
